Tested on: morphine-induced antinociception
experimentSummary: antagonism of morphine antinociception, 55° C. warm-water tail flick assay
Type: in vivo, mice
experimentalConditions: 10 mg/kg i.p., morphine 20 nmol i.c.v. (A90), 55° C. tail-flick
measuredQuantity: blockade of antinociceptive actions of morphine

Solved cases below.
N[C@@H]1CC[C@@]2(O)[C@H]3Cc4ccc(O)c5c4[C@@]2(CCN3CC2CC2)[C@H]1O5 [6β-Naltrexamine, 6β-naltrexamine] = only partial blockade
Oc1ccc2c3c1O[C@H]1[C@H](O)CC[C@@]4(O)[C@@H](C2)N(CC2CC2)CC[C@]314 [6α-Naltrexol, 6α-naltrexol] = blocked
O=C1CC[C@@]2(O)[C@H]3Cc4ccc(O)c5c4[C@@]2(CCN3CC2CC2)[C@H]1O5 [Naltrexone, naltrexone, reference compound] = blocked
C=CCN1CC[C@]23c4c5ccc(O)c4O[C@H]2C(=O)CC[C@@]3(O)[C@H]1C5 [Naloxone, naloxone, reference compound] = blocked
C=CCN1CC[C@]23c4c5ccc(O)c4O[C@H]2[C@H](O)CC[C@@]3(O)[C@H]1C5 [6β-Naloxol, 6β-naloxol] = only partial blockade

Now consider the entry below.
Fill in: blockade of antinociceptive actions of morphine of C=CCN1CC[C@]23c4c5ccc(O)c4O[C@H]2[C@@H](O)CC[C@@]3(O)[C@H]1C5 [6α-Naloxol, 6α-naloxol] is ___ blocked
